Test: Plasma triptorelin concentration
Type: in vivo, Chinese children
Details: human, im, 15 mg, SD
test_readout: level at 4 h (ng/mL)
Write the number in ng/mL without appending the unit.

Supply reported level at 4 h belonging to this compound: CC(C)C[C@H](NC(=O)[C@@H](Cc1c[nH]c2ccccc12)NC(=O)[C@H](Cc1ccc(O)cc1)NC(=O)[C@H](CO)NC(=O)[C@H](Cc1c[nH]c2ccccc12)NC(=O)[C@H](Cc1c[nH]cn1)NC(=O)[C@@H]1CCC(=O)N1)C(=O)N[C@@H](CCCNC(=N)N)C(=O)N1CCC[C@H]1C(=O)NCC(N)=O [triptorelin]
47.6
